assaySummary: Evaluation of pharmacokinetic parameters for Vardenafil evaluated following single oral administration of Vardenafil to healthy male volunteers.
Format: ADME, organism-based
settings: human, in vivo, dose 20 mg, dosed compound id 28, dosed compound name VARDENAFIL HYDROCHLORIDE, gender male, regimen Single dose, tissue Plasma
quantity: half-life

Summary for this compound, CCCc1nc(C)c2c(=O)nc(-c3cc(S(=O)(=O)N4CCN(CC)CC4)ccc3OCC)[nH]n12.Cl [VARDENAFIL HYDROCHLORIDE] : half-life is 4 to 5 h

----------
assaySummary: Evaluation of pharmacokinetic parameters for Vardenafil evaluated following single oral administration of Vardenafil to healthy male volunteers.
Format: ADME, organism-based
settings: human, in vivo, dietary status Fasting, dose 20 mg, dosed compound id 28, dosed compound name VARDENAFIL HYDROCHLORIDE, gender male, regimen Single dose, tissue Plasma
quantity: Tmax

The reported value for CCCc1nc(C)c2c(=O)nc(-c3cc(S(=O)(=O)N4CCN(CC)CC4)ccc3OCC)[nH]n12.Cl [VARDENAFIL HYDROCHLORIDE] in terms of Tmax is 0.5 to 2 h
